# tested-target: Helios (Homo sapiens, UniProt Q96SW2+Q9UKS7)
# Construct: fluorescently labelled antibodies against Helios and Ikaros; endogenous in cells; host or cells: Jurkat cells
# Sequence (Q9UKS7 whole entry): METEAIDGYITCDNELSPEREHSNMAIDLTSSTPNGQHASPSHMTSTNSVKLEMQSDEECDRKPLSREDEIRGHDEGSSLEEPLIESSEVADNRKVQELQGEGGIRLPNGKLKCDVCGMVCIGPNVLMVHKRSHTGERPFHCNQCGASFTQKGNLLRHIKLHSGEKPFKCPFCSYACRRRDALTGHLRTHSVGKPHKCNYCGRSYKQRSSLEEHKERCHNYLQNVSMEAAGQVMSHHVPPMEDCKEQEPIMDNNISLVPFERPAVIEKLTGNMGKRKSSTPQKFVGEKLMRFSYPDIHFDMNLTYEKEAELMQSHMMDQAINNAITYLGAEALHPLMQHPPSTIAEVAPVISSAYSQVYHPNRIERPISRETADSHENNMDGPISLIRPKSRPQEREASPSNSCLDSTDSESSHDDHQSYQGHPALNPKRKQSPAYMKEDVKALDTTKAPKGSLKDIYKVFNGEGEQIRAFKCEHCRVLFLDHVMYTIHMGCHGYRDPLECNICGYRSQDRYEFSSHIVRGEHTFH
# Sequence (Q96SW2 whole entry): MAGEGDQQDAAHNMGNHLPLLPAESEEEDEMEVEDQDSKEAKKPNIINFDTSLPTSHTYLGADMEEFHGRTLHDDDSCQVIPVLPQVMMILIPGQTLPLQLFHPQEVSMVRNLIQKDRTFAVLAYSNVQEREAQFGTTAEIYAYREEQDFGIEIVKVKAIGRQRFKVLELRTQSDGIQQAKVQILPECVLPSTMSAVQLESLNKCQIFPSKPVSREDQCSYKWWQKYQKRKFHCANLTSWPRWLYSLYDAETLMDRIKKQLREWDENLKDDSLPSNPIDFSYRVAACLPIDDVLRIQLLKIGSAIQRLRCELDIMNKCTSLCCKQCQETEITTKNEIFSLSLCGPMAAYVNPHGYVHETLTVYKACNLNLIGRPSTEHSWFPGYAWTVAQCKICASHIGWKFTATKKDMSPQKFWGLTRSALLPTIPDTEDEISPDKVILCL
# Sequence (Q16531 whole entry partner): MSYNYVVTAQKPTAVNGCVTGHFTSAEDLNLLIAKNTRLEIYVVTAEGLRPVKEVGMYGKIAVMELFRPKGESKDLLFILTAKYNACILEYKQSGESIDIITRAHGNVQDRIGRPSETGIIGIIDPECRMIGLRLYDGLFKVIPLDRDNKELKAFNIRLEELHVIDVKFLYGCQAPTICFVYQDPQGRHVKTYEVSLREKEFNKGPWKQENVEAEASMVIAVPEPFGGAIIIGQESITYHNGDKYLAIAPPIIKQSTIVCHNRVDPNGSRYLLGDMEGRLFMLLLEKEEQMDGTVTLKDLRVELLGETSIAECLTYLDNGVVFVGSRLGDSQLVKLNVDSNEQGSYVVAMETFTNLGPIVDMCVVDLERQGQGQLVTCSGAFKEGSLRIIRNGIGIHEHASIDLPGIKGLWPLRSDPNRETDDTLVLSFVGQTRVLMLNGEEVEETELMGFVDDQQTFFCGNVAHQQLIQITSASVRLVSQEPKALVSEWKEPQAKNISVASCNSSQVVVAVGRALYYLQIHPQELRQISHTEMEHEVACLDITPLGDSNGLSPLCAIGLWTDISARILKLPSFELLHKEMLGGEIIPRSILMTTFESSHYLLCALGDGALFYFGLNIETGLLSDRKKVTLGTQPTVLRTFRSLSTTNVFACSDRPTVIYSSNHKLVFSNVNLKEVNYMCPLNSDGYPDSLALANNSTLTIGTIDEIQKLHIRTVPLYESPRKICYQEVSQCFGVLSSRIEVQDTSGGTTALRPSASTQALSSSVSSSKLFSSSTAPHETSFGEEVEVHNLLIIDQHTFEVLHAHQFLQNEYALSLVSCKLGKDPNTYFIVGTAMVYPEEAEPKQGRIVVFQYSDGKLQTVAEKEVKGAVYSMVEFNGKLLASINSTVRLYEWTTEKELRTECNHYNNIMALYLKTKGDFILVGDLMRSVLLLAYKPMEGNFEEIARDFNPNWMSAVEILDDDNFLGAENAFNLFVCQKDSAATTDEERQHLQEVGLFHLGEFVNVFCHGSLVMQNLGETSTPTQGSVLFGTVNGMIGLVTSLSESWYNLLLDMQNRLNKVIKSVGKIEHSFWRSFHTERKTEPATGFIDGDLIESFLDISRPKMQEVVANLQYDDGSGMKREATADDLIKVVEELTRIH
# run-description: Helios Cellular Degradation Assay (flow cytometry, Helios-PE antibody staining, 72 h)
# Format: cell-based
# setup-conditions: Jurkat, Jurkat cells, 72 h incubation, flow cytometry; read-out: Helios Dmax
Here the recorded Dmax is given for each entry.
Reply with just the number (in %).

Some solved cases for reference:
compound: CN1CCC(N(C)Cc2ccnc(-c3ccc4c(c3)CN(C3CCC(=O)NC3=O)C4=O)c2)CC1 (centres unmarked)
endpoint-unit: %
Dmax: 22

compound: CN(C)CCN(C)Cc1ccnc(-c2ccc3c(c2)CN(C2CCC(=O)NC2=O)C3=O)c1 (centres unmarked)
endpoint-unit: %
Dmax: 35

compound: CN(Cc1ccnc(-c2ccc3c(c2)CN(C2CCC(=O)NC2=O)C3=O)c1)Cc1ccc(F)c(F)c1 (centres unmarked)
endpoint-unit: %
Dmax: 55

Recorded Dmax for O=C1CCC(N2Cc3cc(-c4cc(CN5CCC5c5ccccc5)c(F)cn4)ccc3C2=O)C(=O)N1 (centres unmarked) on Helios (Homo sapiens, UniProt Q96SW2+Q9UKS7) was 80

Lab note: compound O=C1CCC(N2Cc3cc(-c4cc(CN5CCCC(c6ccccc6)C5)ccn4)ccc3C2=O)C(=O)N1 (centres unmarked) tested on Helios (Homo sapiens, UniProt Q96SW2+Q9UKS7); recorded Dmax was 62

Record O=C1CCC(N2Cc3cc(-c4cc(CN5CC(c6ccccc6)C5)c(F)cn4)ccc3C2=O)C(=O)N1 (centres unmarked) ; system Helios (Homo sapiens, UniProt Q96SW2+Q9UKS7); Dmax = 76

Measured Dmax for this entry O=C1CCC(N2Cc3cc(-c4cc(CNCC5(O)CCCCC5)ccn4)ccc3C2=O)C(=O)N1 (centres unmarked) on Helios (Homo sapiens, UniProt Q96SW2+Q9UKS7): 95

Reported Helios (Homo sapiens, UniProt Q96SW2+Q9UKS7) Dmax for item O=C1CCC(N2Cc3cc(-c4cc(CNCCCCO)ccn4)ccc3C2=O)C(=O)N1 (centres unmarked) was 94

Data origin, for the record: patent US11548870B2
